# Test system: CAF#3 (primary prostate cancer-associated fibroblasts of myCAF-like type)
# protocol_notes: drug sensitivity score (DSS2, normalised partial AUC of dose-response, 72 h CellTiter-Glo viability) (DSS (dimensionless)); higher = more sensitive (stronger growth inhibition / cytotoxicity); extreme values may be limits of the assay

[
  {
    "compound": "CC1(COc2ccc3c(c2)ncn3-c2ccc3cccc(N4CCC(N)CC4)c3n2)COC1 [Crenolanib] (tested concentration range 1-10000 nM)",
    "experimental_target": "CAF#3",
    "drug sensitivity score": 7.5
  },
  {
    "compound": "Nc1nc2[nH]cnc2c(=S)[nH]1 [Thioguanine] (tested concentration range 1-10000 nM)",
    "experimental_target": "CAF#3",
    "drug sensitivity score": 0.2
  },
  {
    "compound": "CC(C)(C)c1cc(NC(=O)Nc2ccc(-c3cn4c(n3)sc3cc(OCCN5CCOCC5)ccc34)cc2)no1 [Quizartinib] (tested concentration range 0.1-1000 nM)",
    "experimental_target": "CAF#3",
    "drug sensitivity score": 0
  }
]

---

# Test system: CAF#3
# protocol_notes: drug sensitivity score (DSS2, normalised partial AUC of dose-response, 72 h CellTiter-Glo viability) (DSS (dimensionless)); higher = more sensitive (stronger growth inhibition / cytotoxicity); extreme values may be limits of the assay
measure: drug sensitivity score

[
  {
    "compound": "CC[C@@H]1C(=O)OC[C@@H]1Cc1cncn1C [Pilocarpine] (tested concentration range 4-40000 nM)",
    "assay_value": 0
  },
  {
    "compound": "CCN(CC)C(=S)SSC(=S)N(CC)CC [Disulfiram] (tested concentration range 5-50000 nM)",
    "assay_value": 0
  },
  {
    "compound": "C[C@H](Nc1ncnc2nc[nH]c12)c1cc2cccc(Cl)c2c(=O)n1-c1ccccc1 [Duvelisib] (tested concentration range 0-500 nM)",
    "assay_value": 3.4
  },
  {
    "compound": "O=C(O)c1ccc(O)c2ncccc12 [IOX-1] (tested concentration range 10-100000 nM)",
    "assay_value": 0.3
  },
  {
    "compound": "CCc1nc(C(N)=O)c(Nc2ccc(N3CCC(N4CCN(C)CC4)CC3)c(OC)c2)nc1NC1CCOCC1 [Gilteritinib] (tested concentration range 0.1-1000 nM)",
    "assay_value": 0
  },
  {
    "compound": "CC1(C)CCC(CN2CCN(c3ccc(C(=O)NS(=O)(=O)c4ccc(NCC5CCOCC5)c([N+](=O)[O-])c4)c(Oc4cnc5[nH]ccc5c4)c3)CC2)=C(c2ccc(Cl)cc2)C1 [Venetoclax] (tested concentration range 0.1-1000 nM)",
    "assay_value": 0
  }
]

---

drug sensitivity score reference
# System: CAF#3
# protocol_notes: drug sensitivity score (DSS2, normalised partial AUC of dose-response, 72 h CellTiter-Glo viability) (DSS (dimensionless)); higher = more sensitive (stronger growth inhibition / cytotoxicity); extreme values may be limits of the assay
measure: drug sensitivity score

[
  {
    "molecule": "Cc1cccc(CC(=O)N2CCc3c2ccc(-c2cn(C)c4ncnc(N)c24)c3F)n1 (tested concentration range 0.2-2500 nM)",
    "measure": "drug sensitivity score",
    "assay_value": 0
  },
  {
    "molecule": "CC(O)c1cc(C(=O)N[C@@H](C)Cn2ccc(-c3ccc(C#N)c(Cl)c3)n2)n[nH]1 (stereo partly specified) [Darolutamide] (tested concentration range 0.2-2500 nM)",
    "measure": "drug sensitivity score",
    "assay_value": 0.1
  },
  {
    "molecule": "O=C(c1cc(Cc2n[nH]c(=O)c3ccccc23)ccc1F)N1CCN(C(=O)C2CC2)CC1 [Olaparib] (tested concentration range 1-10000 nM)",
    "measure": "drug sensitivity score",
    "assay_value": 3
  },
  {
    "molecule": "O=C(Nc1cc(Cl)cc2c1[nH]c1cnccc12)c1cccnc1 [PS-1145] (tested concentration range 2.5-25000 nM)",
    "measure": "drug sensitivity score",
    "assay_value": 1.3
  },
  {
    "molecule": "CC(C)C[C@@H](C(=O)N[C@H](C(=O)OC1CCCC1)c1ccccc1)[C@H](O)C(=O)NO [Tosedostat] (tested concentration range 1-10000 nM)",
    "measure": "drug sensitivity score",
    "assay_value": 1
  },
  {
    "molecule": "COc1cc2/c(=N/c3ccc(Br)cc3F)nc[nH]c2cc1OCC1CCN(C)CC1 [Vandetanib] (tested concentration range 0.1-1000 nM)",
    "measure": "drug sensitivity score",
    "assay_value": 2.4
  }
]

---

# System: CAF#3
# protocol_notes: drug sensitivity score (DSS2, normalised partial AUC of dose-response, 72 h CellTiter-Glo viability) (DSS (dimensionless)); higher = more sensitive (stronger growth inhibition / cytotoxicity); extreme values may be limits of the assay
measure: drug sensitivity score

[
  {
    "compound": "N#CC(c1ccnc(OCc2ccc(CN3CCOCC3)cc2)n1)c1nc2ccccc2s1 (stereo unspecified) [Bentamapimod] (tested concentration range 1-10000 nM)",
    "experimental_target": "CAF#3",
    "measure": "drug sensitivity score",
    "assay_value": 0
  },
  {
    "compound": "CON(C)C(=O)N1N=C(c2cc(F)ccc2F)S[C@@]1(CCCN)c1ccccc1 [Filanesib] (tested concentration range 0.1-1000 nM)",
    "experimental_target": "CAF#3",
    "measure": "drug sensitivity score",
    "assay_value": 3.2
  },
  {
    "compound": "Cn1ncnc1[C@H]1c2n[nH]c(=O)c3cc(F)cc(c23)N[C@@H]1c1ccc(F)cc1 [Talazoparib] (tested concentration range 0.1-1000 nM)",
    "experimental_target": "CAF#3",
    "measure": "drug sensitivity score",
    "assay_value": 2.1
  },
  {
    "compound": "O=c1ncn2nc(Sc3ccc(F)cc3F)ccc2c1-c1c(Cl)cccc1Cl [Neflamapimod] (tested concentration range 1-10000 nM)",
    "experimental_target": "CAF#3",
    "measure": "drug sensitivity score",
    "assay_value": 0
  },
  {
    "compound": "CCS(=O)(=O)N1CCN(c2ccc(Nc3ncc(C(N)=O)c(NC4CC4)n3)cc2)CC1 [Cerdulatinib] (tested concentration range 1-10000 nM)",
    "experimental_target": "CAF#3",
    "measure": "drug sensitivity score",
    "assay_value": 0
  },
  {
    "compound": "Nc1ncn([C@@H]2O[C@H](CO)[C@@H](O)[C@H]2O)c(=O)n1 [Azacitidine] (tested concentration range 1-10000 nM)",
    "experimental_target": "CAF#3",
    "measure": "drug sensitivity score",
    "assay_value": 1.8
  }
]

---

# drug sensitivity score per record follows
# System: CAF#3
# protocol_notes: drug sensitivity score (DSS2, normalised partial AUC of dose-response, 72 h CellTiter-Glo viability) (DSS (dimensionless)); higher = more sensitive (stronger growth inhibition / cytotoxicity); extreme values may be limits of the assay
measure: drug sensitivity score

[
  {
    "compound": "CC[C@@H](C(=O)[C@@H](C)[C@@H](O)[C@H](C)[C@@H]1O[C@@H]([C@@H](CC)C(=O)O)CC[C@@H]1C)[C@H]1O[C@]2(C=C[C@@H](O)[C@]3(CC[C@@](C)([C@H]4CC[C@](O)(CC)[C@H](C)O4)O3)O2)[C@H](C)C[C@@H]1C [Salinomycin] (tested concentration range 5-50000 nM)",
    "assay_value": 9.4
  },
  {
    "compound": "CC(C)N(C[C@H]1O[C@@H](n2cnc3c(N)ncnc32)[C@H](O)[C@@H]1O)[C@H]1C[C@@H](CCc2nc3cc(C(C)(C)C)ccc3[nH]2)C1 [Pinometostat] (tested concentration range 0.1-1000 nM)",
    "assay_value": 1.5
  },
  {
    "compound": "O=C1CCc2c(Oc3ccc4c(c3)[C@@H]3[C@H](O4)[C@H]3c3nc4cc(C(F)(F)F)ccc4[nH]3)ccnc2N1 [Lifirafenib] (tested concentration range 1-10000 nM)",
    "assay_value": 0
  },
  {
    "compound": "COc1ccccc1S(=O)(=O)Nc1ccc2c(c1)CN(C)C(=O)N2 [PFI-1] (tested concentration range 3-30000 nM)",
    "assay_value": 4.3
  }
]

---

# Test system: CAF#4 (primary prostate cancer-associated fibroblasts of iCAF-like type)
# protocol_notes: drug sensitivity score (DSS2, normalised partial AUC of dose-response, 72 h CellTiter-Glo viability) (DSS (dimensionless)); higher = more sensitive (stronger growth inhibition / cytotoxicity); extreme values may be limits of the assay
// reported drug sensitivity score per item

[
  {
    "compound": "COc1cc(N2CCN(C)CC2)ccc1Nc1nccc(-c2cn(C)c3cnccc23)n1 [AZ191] (tested concentration range 1-10000 nM)",
    "drug sensitivity score": 1.9
  },
  {
    "compound": "CCCOc1ccn2c(C(C)=O)cc(-c3ccccc3S(C)(=O)=O)c2c1 [GSK2801] (tested concentration range 1-10000 nM)",
    "drug sensitivity score": 0
  },
  {
    "compound": "Nc1nc(OCc2cc(Br)cs2)c2[nH]cnc2n1 [Lomeguatrib] (tested concentration range 1-10000 nM)",
    "drug sensitivity score": 0.1
  }
]
